Origin of measurements: PubChem BioAssay (NCI)

# key: entry, value: TGI
System: MDA-MB-468 breast
Assay Name: NCI tumour cell line growth inhibition, 48 h
Could you give me the number in µM? Just the number is fine.

Here are 6 compounds together with their reported answers.
CN(C)CCCNC1=C(Cl)C(=O)c2ccccc2C1=O = 3.33
Fc1ccc(Nc2ncnc3ccc(-c4cnc5[nH]ccc5c4)cc23)cc1Cl = 0.575
Cc1cc(=O)n2[nH]c(-c3ccc(C(C)(C)C)cc3)cc2n1 = 40.6
COc1cc2c3c(n(CCCNC4CCCCC4)c(=O)c2cc1OC)-c1cc2c(cc1C3=O)OCO2 = 15.7
CNC(=O)c1cc(Oc2ccc3nc(NC(=O)Nc4ccc(Cl)c(C(F)(F)F)c4)sc3c2)ccn1 = 4.1
Clc1ccc2c(N/N=C/c3c[nH]c4ccccc34)ccnc2c1 = 2.45

Bench note: what TGI did O=C(NCCNc1nccc(-c2c(-c3cccc(O)c3)nc3sccn23)n1)c1ccccc1O show?
21

Also need COc1cc2c(c(OC)c1O)C(=O)C(OC)C(c1ccc(O)c(O)c1)O2 (centres undefined) , thanks.
33.3

Also need Cn1ccnc1C(=O)/C=C/c1ccc(CC(=O)Nc2ccc(Br)cc2)cc1 , thanks.
6.62

Also need CC(C)c1ccc(C(C)C(=O)N(CC2=C(C(C)c3ccccn3)c3ccccc3C2)C(C)C)cc1 (centres undefined) , thanks.
41.7

Also need CSc1ccccc1C#C/C=C\C#Cc1ccccc1N1CCCC1=O , thanks.
13.8

Also need COc1cc2nc(-c3ccc(C(F)(F)F)cc3)cc(OCCCN3CCC(O)CC3)c2cc1OC , thanks.
11.3

Also need NC(CSC(c1ccccc1)(c1ccccc1)c1ccc2c(c1)OCO2)C(=O)O (centres undefined) , thanks.
0.672
